Target: flTau aggregates (longest isoform of human Tau, 2N4R) (Homo sapiens)
Construct: 35 μM of recombinant full-length (fl) Tau in phosphate-buffered saline (PBS) were aggregated; purchased Biotechne; host or cells: bacteria
Test: Full-length Tau (flTau) disaggregation assay by Thioflavin T (ThT)
Format: biochemical
Settings: ThT fluorescence; 60 nM flTau aggregates, 30 minutes at RT; read-out: flTau disaggregation EC50
pEC50: −log10 of the molar value.
readout: pEC50

Examples with their reported pEC50 follow.
| compound | readout | measured_result |
| --- | --- | --- |
| c1ccc2c(N3CCN(c4ccc5oc(N6CCOCC6)nc5c4)CC3)n[nH]c2c1 | pEC50 | > 6.00 |
| C(#Cc1n[nH]c2ccccc12)c1ccc2oc(N3CCOCC3)nc2c1 | pEC50 | > 6.00 |
| c1ccc2c(C3CCN(c4cc5nc(N6CCOCC6)oc5cn4)CC3)n[nH]c2c1 | pEC50 | 5.00 to 6.00 |

c1ccc2c(C3CCN(c4ccc5nc(N6CCOCC6)sc5n4)CC3)n[nH]c2c1 yielded pEC50 of 5.00 to 6.00

C1=C(c2c[nH]c3ccccc23)CCN(c2ccc3oc(N4CCOCC4)nc3c2)C1 yielded pEC50 of > 6.00

Cn1cc(C#Cc2ccc3oc(N4CCOCC4)nc3c2)c2cc(F)cnc21 yielded pEC50 of 5.00 to 6.00

Cc1ccc2[nH]nc(C3CCN(c4ccc5oc(N6CCOCC6)nc5c4)CC3)c2c1 yielded pEC50 of 5.00 to 6.00

c1ccc2c(-c3ccn(-c4ccc5oc(N6CCOCC6)nc5c4)n3)n[nH]c2c1 yielded pEC50 of > 6.00

Cc1cccc2[nH]nc(C3CCN(c4ccc5oc(N6CCOCC6)nc5c4)CC3)c12 yielded pEC50 of 5.00 to 6.00

Cn1cc(C2CCN(c3ccc4oc(N5CCOCC5)nc4c3)CC2)c2ccccc21 yielded pEC50 of 5.00 to 6.00

FC1CN(c2ccc3oc(N4CCOCC4)nc3c2)CCC1c1n[nH]c2ccccc12 (stereo not drawn) yielded pEC50 of 5.00 to 6.00

Fc1cccc2[nH]nc(C3CCN(c4ccc5oc(N6CCOCC6)nc5c4)CC3)c12 yielded pEC50 of 5.00 to 6.00

Cn1cc(C2CCN(c3ccc4nc(N5CCOCC5)sc4c3)C2)c2cc(F)cnc21 (stereo not drawn) [Example 83] yielded pEC50 of > 6.00

c1ccc2c(C3CCN(c4ccc5oc(N6CCOCC6)nc5c4)C3)n[nH]c2c1 (stereo not drawn) [Example 38] yielded pEC50 of 5.00 to 6.00

Cn1cc(C2CCN(c3cnc4oc(N5CCOCC5)nc4c3)C2)c2cc(F)cnc21 (stereo not drawn) [Example 85] yielded pEC50 of > 6.00

c1ccc2c(C3CCN(c4cc5nc(N6CCOCC6)oc5cn4)CC3)c[nH]c2c1 yielded pEC50 of 5.00 to 6.00

Cn1cc(C2CCN(c3ccc4sc(N5CCOCC5)nc4c3)C2)c2cc(F)cnc21 (stereo not drawn) [Example 95] yielded pEC50 of 5.00 to 6.00

O=C(Nc1ccc2oc(N3CCOCC3)nc2c1)c1c[nH]c2ccccc12 yielded pEC50 of > 6.00

---

Molecular target: flTau aggregates (longest isoform of human Tau, 2N4R) (Homo sapiens, UniProt P10636)
Construct: 35 μM of recombinant full-length (fl) Tau in phosphate-buffered saline (PBS) were aggregated; purchased Biotechne; host or cells: bacteria
Sequence (P10636 1-441 isoform P10636-8): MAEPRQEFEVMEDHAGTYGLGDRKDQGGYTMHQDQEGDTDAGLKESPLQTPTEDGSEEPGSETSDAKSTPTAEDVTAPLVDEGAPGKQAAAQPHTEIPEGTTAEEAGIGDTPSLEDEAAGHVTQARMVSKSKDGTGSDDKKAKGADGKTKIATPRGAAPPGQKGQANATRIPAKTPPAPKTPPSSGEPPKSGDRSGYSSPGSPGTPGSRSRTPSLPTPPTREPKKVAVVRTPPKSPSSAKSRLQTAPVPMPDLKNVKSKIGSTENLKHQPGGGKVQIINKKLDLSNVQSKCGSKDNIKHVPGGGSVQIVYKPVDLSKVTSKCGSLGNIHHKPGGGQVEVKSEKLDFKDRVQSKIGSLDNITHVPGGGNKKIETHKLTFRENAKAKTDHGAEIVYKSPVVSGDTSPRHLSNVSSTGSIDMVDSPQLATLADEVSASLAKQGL
Assay: Full-length Tau (flTau) disaggregation assay by Thioflavin T (ThT)
Type: biochemical
Details: ThT fluorescence; 60 nM flTau aggregates, 30 minutes at RT; read-out: flTau disaggregation EC50
Catalogue of compounds with associated EC50

Examples with their reported EC50 follow.
| compound | measured_result |
| --- | --- |
| Cn1cc(C2CCN(c3cnc4oc(N5CCOCC5)nc4c3)C2)c2cc(F)cnc21 (centres unmarked) [Example 84] | 1000 to 10000 nM |
| Cn1cc(C2CCN(c3ccc4oc(N5CCOCC5)nc4n3)C2)c2cc(F)cnc21 (centres unmarked) [Example 91] | < 1000 nM |
| O=C(Nc1ccc2oc(N3CCOCC3)nc2c1)c1c[nH]c2ncccc12 | < 1000 nM |
| c1ccc2c(C3CCN(c4cc5sc(N6CCOCC6)nc5cn4)CC3)n[nH]c2c1 | 1000 to 10000 nM |

Sample c1ccc2c(C3CCN(c4ccc5oc(N6CCOCC6)nc5n4)CC3)n[nH]c2c1 , system: flTau aggregates (longest isoform of human Tau, 2N4R) (Homo sapiens, UniProt P10636). Its EC50 is 1000 to 10000 nM

Sample c1ccc2c(C3CCN(c4cnc5oc(N6CCOCC6)nc5c4)CC3)n[nH]c2c1 , system: flTau aggregates (longest isoform of human Tau, 2N4R) (Homo sapiens, UniProt P10636). Its EC50 is 10000 to 50000 nM

Sample COc1cccc2c(C3CCN(c4ccc5oc(N6CCOCC6)nc5c4)CC3)n[nH]c12 , system: flTau aggregates (longest isoform of human Tau, 2N4R) (Homo sapiens, UniProt P10636). Its EC50 is 1000 to 10000 nM

Sample Cn1cc(C2CCN(c3ccc4nc(N5CCOCC5)oc4c3)C2)c2cc(F)cnc21 (centres unmarked) [Example 88] , system: flTau aggregates (longest isoform of human Tau, 2N4R) (Homo sapiens, UniProt P10636). Its EC50 is < 1000 nM
